Across several studies, compounds have been characterized by their IC50 on Tyrosine-protein kinase JAK1 (Homo sapiens); a selection follows.

| Compound | IC50 |
| --- | --- |
| CCS(=O)(=O)N1CC(CC#N)(n2cc(-c3nc(Nc4ccc(-n5cccn5)cc4)nc4ccsc34)cn2)C1 | 50 to 500 nM |
| O=C(NCCC(F)(F)F)c1noc2c1CN(c1ncnc3[nH]cnc13)CC2 | 100 to 500 nM |
| N#C[C@@H]1CCOC[C@H]1n1cc(C(N)=O)c(Nc2ccc3c(c2)C=C(CCO)B(O)O3)n1 (relative stereo) | < 10 nM |

Here's the next entry for you.
In plain terms, C#Cc1ccc(C(=O)N2CC3(CC(N(C)c4ncnc5[nH]ccc45)C3)C2)c(Cl)c1 has a documented IC50 of ≤ 10 nM
